FYI, the data here is from PubChem BioAssay AID1645865.

# measured target: Ubiquitin carboxyl-terminal hydrolase 30 (Homo sapiens) (UniProt Q70CQ3)
# Sequence (Q70CQ3 whole entry, looked up): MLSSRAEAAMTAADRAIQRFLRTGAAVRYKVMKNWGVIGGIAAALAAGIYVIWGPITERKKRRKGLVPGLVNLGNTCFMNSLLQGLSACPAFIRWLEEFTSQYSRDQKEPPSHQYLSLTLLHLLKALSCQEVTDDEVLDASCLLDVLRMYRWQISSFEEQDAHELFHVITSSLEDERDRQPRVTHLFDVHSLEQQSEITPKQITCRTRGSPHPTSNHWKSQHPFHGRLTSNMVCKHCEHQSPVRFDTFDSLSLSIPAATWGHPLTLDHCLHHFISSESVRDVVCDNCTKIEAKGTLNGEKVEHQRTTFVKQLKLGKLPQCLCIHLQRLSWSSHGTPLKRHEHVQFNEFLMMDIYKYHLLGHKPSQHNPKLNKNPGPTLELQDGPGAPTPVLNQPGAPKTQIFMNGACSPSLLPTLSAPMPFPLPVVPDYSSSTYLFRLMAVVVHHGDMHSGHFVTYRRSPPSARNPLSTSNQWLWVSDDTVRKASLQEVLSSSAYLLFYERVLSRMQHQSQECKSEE
# experiment summary: inhibitors of ubiquitin-specific protease 30 deubiquitylating enzyme, concentration dependence, in vitro biochemical, validation of primary hits (AID 1645865)
# condition description: purified USP30, Ub-rhodamine cleavage, fluorescence, 2 h
Calls of active or inactive are those of the source.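 Rule for the calls: active = maximal inhibition of the USP30 enzyme reaching 30% or more across the dose series; inactive = the rest.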
Outcome codes: y = active, n = inactive

1) O=C(Nc1ccc(-c2cn3ccccc3n2)cc1)C1C=C2C=C(Br)C=CC2OC1=O (stereo unspecified) :: y
2) Cc1c(-c2nc(-c3ccccc3Cl)no2)nnn1-c1cccc(F)c1 :: y
3) CCOc1ccc2[nH]c(=O)c(CN(C(=O)c3cccs3)C3CCCC3)cc2c1 :: y
4) Cc1ccccc1Cc1nc(-c2ccc(=O)[nH]c2)no1 :: n
5) CCOC(=O)c1cnc(C(F)(F)F)nc1Sc1n[nH]c(-c2cccs2)n1 :: n
6) O=C(CSc1ncnc2c1sc1cccc(F)c12)N1CCCCCC1 :: n

----------
# measured target: UniProt Q70CQ3
# experiment summary: inhibitors of ubiquitin-specific protease 30 deubiquitylating enzyme, concentration dependence, in vitro biochemical, validation of primary hits (AID 1645865)
# condition description: purified USP30, Ub-rhodamine cleavage, fluorescence, 2 h
The source made the active and inactive calls.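 Rule for the calls: active = maximal inhibition of the USP30 enzyme reaching 30% or more across the dose series; inactive = the rest.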
Labels: active, inactive

1. O=C(CNC(=O)OCc1ccccc1)Nc1ccc(Br)cc1C(=O)c1ccccc1Cl :: active
2. Cc1ncc(CO)c2c1Oc1nc(-c3cccc(Cl)c3)nc(SCC(=O)N3CCCCC3)c1C2 :: inactive
3. O=C(CCn1c(=O)c2ccccc2n(Cc2cc(=O)n3ccccc3n2)c1=O)NCCc1ccc(Cl)cc1 :: active
4. Cc1ccc(C)c(-n2c(C)cc(/C=C3/C(=N)N4C(c5ccc(F)cc5)=CSC4=NC3=O)c2C)c1 :: inactive
5. N=C1C(c2nc3ccccc3s2)=C(O)CN1Cc1ccc(F)cc1 :: inactive
6. Fc1cc(F)c2[nH]cc(-c3nnnn3-c3ccc4ccccc4c3)c2c1 :: active
7. Cc1nc(-c2cccc(NC(=O)c3ccccc3Cl)c2)no1 :: inactive
8. O=C(NCCc1ccccc1F)c1cn2cc(Cl)ccc2n1 :: active
9. Cc1oc(C2CC2)cc1C(=O)N1CCC2(CC1)CC1(CO2)Nc2ccccc2-n2cccc21 (stereo not given) :: inactive
10. O=C(Cc1ccccc1F)Nc1nc(-c2ccco2)c(-c2ccco2)s1 :: inactive

----------
# measured target: UniProt Q70CQ3
# experiment summary: inhibitors of ubiquitin-specific protease 30 deubiquitylating enzyme, concentration dependence, in vitro biochemical, validation of primary hits (AID 1645865)
# condition description: purified USP30, Ub-rhodamine cleavage, fluorescence, 2 h
Activity calls are given as the source filed them.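 How the source made its calls: active means maximal inhibition of the USP30 enzyme reaching 30% or more across the dose series; inactive means the rest.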
endpoint: IC50

1) O=C1c2c(O)c(Cl)cc3c2[C@@]2(Oc4cc(Cl)c(O)c5c4[C@]3(O2)[C@@H]2O[C@@H]2C5=O)[C@@H]2O[C@H]12 :: 1.1 µM
2) Cc1cccc(-n2cnc(C(=O)NCc3ccc(F)cc3)c2)n1 :: 44.9 µM
3) C[C@@]12c3ccc4c(c3C(=O)c3occ(c31)C(O)C[C@H]2O)CCC4=O (stereo not given in full) :: > 50 µM (inactive)
4) CCC(=O)Nc1cccnc1-c1ccc(C(=O)Nc2cccc(OC)c2)cc1 :: > 50 µM (inactive)
5) Cc1nc2ccccn2c1C1(O)C(=O)Nc2c(Cl)cc(Cl)cc21 (stereo not given) :: > 50 µM (inactive)
6) Cc1[nH]nc(NC(=O)C2COc3ccccc3O2)c1-c1ccccc1 (stereo not given) :: 40.7 µM
7) O=C(COc1ccc(Cl)cc1)Nc1noc(-c2ccccc2)n1 :: 25.8 µM
8) CCCCc1nc2sc3c(SCC(=O)Nc4cccc(C)c4)ncnc3c2c2c1CCC2 :: > 50 µM (inactive)
9) COc1cc(NC(=O)COC(=O)Cn2cnc3ccccc32)cc(OC)c1 :: > 50 µM (inactive)
10) Cc1cc(C)n(-c2ccc(C(=O)Nc3cccc(S(=O)(=O)N4CCCC4)c3)cc2)n1 :: 9.63 µM

----------
# measured target: Ubiquitin carboxyl-terminal hydrolase 30 (Homo sapiens)
# experiment summary: inhibitors of ubiquitin-specific protease 30 deubiquitylating enzyme, concentration dependence, in vitro biochemical, validation of primary hits (AID 1645865)
# condition description: purified USP30, Ub-rhodamine cleavage, fluorescence, 2 h
Calls of active or inactive are those of the source.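 The calls were made as follows: active = maximal inhibition of the USP30 enzyme reaching 30% or more across the dose series; inactive = the rest.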
Classes used: active, inactive

1. CCCC[C@@H](C)/C=C(C)/C=C(\C)C(=O)NC1=C[C@](O)(/C=C/C=C/C=C/C(=O)NC2=C(O)CCC2=O)[C@@H]2O[C@@H]2C1=O :: active
2. Cc1nn(-c2ccccc2)c2c1N=C1C(Cl)=CC(Cl)=CN1C21C(=O)Nc2ccccc21 (stereo not given) :: inactive
3. COC(=O)c1sc2ccccc2c1NC(=O)c1ccc(Br)s1 :: active
4. CC1(C)CC(n2[nH]c(=O)c3c2NC(=O)CSC3c2ccc(OCc3ccccc3)cc2)CCO1 (stereo not given) :: active
5. CCOC(=O)c1ccc(NC(=O)Cn2c(=O)n(CC(=O)NCCc3ccc(OC)c(OC)c3)c(=O)c3sccc32)cc1 :: active

----------
# measured target: Ubiquitin carboxyl-terminal hydrolase 30 (Homo sapiens)
# experiment summary: inhibitors of ubiquitin-specific protease 30 deubiquitylating enzyme, concentration dependence, in vitro biochemical, validation of primary hits (AID 1645865)
# condition description: purified USP30, Ub-rhodamine cleavage, fluorescence, 2 h
Calls of active or inactive are those of the source.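 How the source made its calls: active means maximal inhibition of the USP30 enzyme reaching 30% or more across the dose series; inactive means the rest.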
Labels: YES for active, NO for inactive

1. CN(C)c1cccc(C(=O)Nc2cc(-c3cccnc3)no2)c1 :: YES
2. COc1ccc2nc(-c3ccc(NC(=O)c4cccc(OC)c4OC)cc3)cn2n1 :: YES
3. Cc1ccc2c(Nc3ccc(CC(=O)O)cc3)c(C(=O)N3CCCC3)cnc2n1 :: NO
4. Cc1cc(=O)n(CC(=O)Nc2ccccc2C)c(Nc2ccc(F)cc2)n1 :: YES
5. Cc1ccccc1NC(=O)C(C)n1c(=O)cc(-c2ccccc2)c2c(C)nn(C)c21 (stereo unspecified) :: YES
6. COc1cccc2cccc(O)c12 :: NO
7. COc1ccc(C(=O)CCN2CCOCC2)cc1[N+](=O)[O-] :: NO
8. O=C(COc1ccc(Cl)cc1Cl)Nc1ccc2[nH]c(=O)[nH]c2c1 :: YES
9. Cc1cc(=O)n(CC(=O)NCc2ccccc2F)c2c1c(C)nn2-c1ccccc1 :: YES
10. Cc1ccc2c(c1C)NC(=O)[C@]21[C@@H]2C(=O)N(c3cc(Cl)ccc3Cl)C(=O)[C@@H]2[C@@H]2CCCN21 :: NO
11. O=C(NC1CCCC1)C1CC(=O)N(c2cccc(-c3noc(-c4cccs4)n3)c2)C1 (stereo unspecified) :: NO
12. COc1cccc(-n2c(CNCc3cccnc3)nc3ccc([N+](=O)[O-])cc3c2=O)c1 :: YES
13. O=C(Nc1ccc(F)cc1F)c1csc(-c2ccccc2)n1 :: YES
14. COc1cc2c(cc1OC)C(COc1ccccc1OC)N(C(=O)c1ccc3ccccc3c1)CC2 (stereo unspecified) :: NO
15. COCCCn1c(C(=O)NCCc2ccccc2)cc2c(=O)n3cccc(C)c3nc21 :: YES
16. COc1cccc2c1NC(=O)C21CCN(C(=O)Nc2cccc3ccccc23)CC1 :: NO
17. Cc1cc(C(=O)N2CCN(C3CCN(Cc4ccc(Cl)o4)CC3)C(=O)C2)c(C)o1 :: NO
18. Cc1c(C)c2ccc(OCC(=O)NCc3ccncc3)c(C)c2oc1=O :: YES
19. COc1ccc(N2C(=O)[C@@H]3[C@H]4c5ccccc5C=CN4C(C(=O)Nc4ccc5c(c4)OCO5)[C@@H]3C2=O)cc1 (stereo partly specified) :: NO
20. Cc1ccc(NC(=O)/C=C/c2cccc(C(F)(F)F)c2)c(O)c1 :: YES
21. COc1ccccc1NS(=O)(=O)c1cccc(NC(=O)CCc2nc3ccccc3s2)c1 :: YES
22. O=C(NCCc1ccccn1)c1cc(-c2ccc(Br)cc2)n[nH]1 :: YES
23. O=C(Cc1nnc2c(-c3nc(C4CC4)no3)cccn12)Nc1ccccc1 :: YES
24. O=C(CCCCn1c(=O)[nH]c2ccccc2c1=O)Nc1cccc(Cl)c1 :: YES
25. COc1ccc(OCCn2c(C3CC(=O)N(c4cccc(C)c4)C3)nc3ccccc32)cc1 (stereo unspecified) :: YES
26. O=C(Nc1ccccc1Br)c1ccn(COc2ccccc2F)n1 :: YES
27. C/C1=C\CCC(C)C(O)CC(O)C(C)C(O)CCC(C)C(O)CC2(O)OC(CC(OC(=O)CC(=O)O)CC(O)CC(O)CC(O)C(C)C(O)/C=C/C(C)C(C(C)CCCCCCCCN=C(N)N)OC1=O)CC(O)C2O (stereo unspecified) :: NO
28. Cc1cc(C(=O)NC2(O)C(=O)c3ccccc3C2=O)n(C)n1 :: YES
29. Cc1cccc(S(=O)(=O)N2CCc3nc4ccccc4n3CC2)c1 :: YES
30. COc1ccc(C(C)NC(=O)c2cnc(-c3ccccc3)nc2-c2ccncc2)cc1 (stereo unspecified) :: NO
31. COc1ccccc1CNC(=O)c1ccc(CSc2nc3ccncc3n2Cc2ccccc2)cc1 :: YES
32. COc1cc(NC(=O)c2ccc3c(c2)OCO3)ccc1-c1cc2ccccc2oc1=O :: YES
33. COc1ccc2cc1Oc1cc(ccc1OC)C(O)C13SSC4(C(=O)N1C)C(O)C1=COC=CC(OC2=O)C1N4C3=O (stereo unspecified) :: YES
34. Cc1cc(=O)n(C)c2c(O)c3c(cc12)c(C)cc(=O)n3C :: NO
35. O=c1ccc(-c2noc(Cc3c(F)cccc3Cl)n2)c[nH]1 :: NO
36. Cc1noc(-c2cc(=O)n(CC(=O)NCc3ccccc3)c3ccccc23)n1 :: NO
37. O=C(COc1ccc(F)cc1)Nc1cnc(-c2ccc(Cl)cc2)nc1 :: YES
38. CSc1ccccc1C(=O)Nc1sc2c(c1C(N)=O)CCC(C)C2 (stereo unspecified) :: YES
39. COc1ccc(C(=O)NCCc2nnc3ccc(SCC(=O)NCc4ccc(F)cc4)nn23)cc1 :: YES
40. CCCN1CCN(C(=O)c2cc(NC(=O)C3CCC3)cc3nc(C)ccc23)CC1 :: NO
41. CCc1nc(-c2cc(C(=O)N3CCOCC3)c3ccccn23)cs1 :: NO
